- Tested on: Italian ryegrass (Lolium multiflorum)
- ASSAY EXPLANATION: Test B preemergence, Italian ryegrass
- Format: in vivo
- CONDITION NOTES: Preemergence, 125 g ai/ha; scale 0 to 100
Below is a list of entries, each paired with its recorded Plant response rating, Ryegrass, Italian value.
EXPERIMENTAL ENDPOINT: Plant response rating, Ryegrass, Italian

- SMILES NOTATION: "CC1(C)CC(S(=O)(=O)Cc2c(C(F)(F)Cl)nc3n(c2=O)CCC3)=NO1"
  EXPERIMENTAL ENDPOINT: "Plant response rating, Ryegrass, Italian"
  REPORTED VALUE: 40
- SMILES NOTATION: "CC1(C)CC(S(=O)(=O)Cc2c(C(F)(F)F)nc3n(c2=O)CCCC3)=NO1"
  EXPERIMENTAL ENDPOINT: "Plant response rating, Ryegrass, Italian"
  REPORTED VALUE: 100
- SMILES NOTATION: "CC1(C)CC(S(=O)(=O)Cc2c(C(F)(F)F)nc3n(c2=O)CCS3)=NO1"
  EXPERIMENTAL ENDPOINT: "Plant response rating, Ryegrass, Italian"
  REPORTED VALUE: 95
- SMILES NOTATION: "CC1(C)CC(S(=O)(=O)Cc2c(C(F)(F)F)nc3n(c2=O)CCC3)=NO1"
  EXPERIMENTAL ENDPOINT: "Plant response rating, Ryegrass, Italian"
  REPORTED VALUE: 90

These measurements were taken from patent US20100099561A1.
